Protocol Text: Percentage survived cells of LA7 cell line done for 6 hr with compound (21.3 uM) in trypan blue exclusion dye test
Format: functional, Rattus norvegicus
Entries and their Survival
Value Type: Survival (%)

> print(dat)
                                   compound  measurement
1  CCCCCCCCCCCCCCCC[N+](C)(C)C[C@H](OC)[C@@H](C[N+](C)(C)CCCCCCCCCCCCCCCC)OC.[Br-].[Br-] [CATIONIC AMPHIPHILE]           80
2      CCCCCCCCCCCCCCCC[N+](C)(C)CCOC.[Br-]          100
3  CCCCCCCCCCCCCCCC[N+](C)(C)CCCC[N+](C)(C)CCCCCCCCCCCCCCCC.[Br-].[Br-] [CATIONIC AMPHIPHILE]          100
4  CCCCCCCCCCCCCCCC[N+](C)(C)C[C@H](OC)[C@H](C[N+](C)(C)CCCCCCCCCCCCCCCC)OC.[Br-].[Br-] [CATIONIC AMPHIPHILE]           90
